# Tested on: human Factor 7 mRNA
# ASSAY_OVERVIEW: Dose-dependent antisense inhibition of human Factor 7 in HepB3 cells, transfection with lipofectin
# Assay type: cell-based
# PARTICULARS: 50 nM, lipofectin, HepB3 cells, 16 hours
# Description: Cells were plated at a density of 4,000 cells per well and treated with lipofectin reagent with 3.125 nM, 6.25 nM, 12.5 nM, 25 nM, 50 nM, and 100 nM concentrations of antisense oligonucleotide, as indicated in Table 3. After a treatment period of approximately 16 hours, RNA was isolated from the cells and Factor 7 mRNA levels were measured by real-time RT-PCR, as described herein. […] Factor 7 mRNA levels were adjusted according to total RNA content as measured by RIBOGREEN®. […]
In the oligonucleotide strings, read from the 5' end, every base follows the letter of its sugar. An asterisk marks phosphorothioate; unmarked linkages are phosphodiester. Other units and linkages are bracketed, terminal groups are in braces. A string of capitals states the bases alone. e = 2'-O-(2-methoxyethyl) (MOE); [5mC] = 5-methylcytosine; d = 2'-deoxy (DNA)
OBSERVABLE: percent inhibition of Factor 7 mRNA, relative to untreated control cells (%)
Report only the number, with the unit % understood.

Study these solved cases before continuing.
422228 (antisense eT*eG*d[5mC]*dA*dT*dG*dG*dT*dG*dA*dT*dG*d[5mC]*dT*dT*e[5mC]*eT*eG*eA*eA) [compound 422228] ... 78
422142 (antisense eG*eA*eG*eT*eT*d[5mC]*dT*dG*d[5mC]*dA*dG*dG*dA*dG*d[5mC]*eG*eG*e[5mC]*e[5mC]*eT) [compound 422142] ... 72
422292 (antisense eG*eT*dT*d[5mC]*dT*dG*d[5mC]*dA*dG*dG*dA*dG*d[5mC]*dG*dG*e[5mC]*e[5mC]*eT*eA*eA) [compound 422292] ... 81
422177 (antisense e[5mC]*e[5mC]*e[5mC]*dG*d[5mC]*d[5mC]*dG*dG*d[5mC]*dT*d[5mC]*dT*dG*d[5mC]*dT*d[5mC]*dA*eT*e[5mC]*e[5mC]) [compound 422177] ... 81

We next turn to a different substance, shown below.
Requested read-out: percent inhibition of Factor 7 mRNA, relative to untreated control cells. Entry: 422086 (antisense eT*eG*e[5mC]*eA*eT*dG*dG*dT*dG*dA*dT*dG*d[5mC]*dT*dT*e[5mC]*eT*eG*eA*eA) [compound 422086]
83

* * *

# Tested on: human Factor 7 mRNA
# ASSAY_OVERVIEW: Antisense inhibition of human Factor 7 mRNA in HepB3 cells, lipofectin, 50 nM, real-time RT-PCR
# Format: cell-based
# PARTICULARS: HepB3 cells, lipofectin, 50 nM antisense oligonucleotide, approximately 24 hours, primer probe set RTS 2927, relative to untreated control
In the oligonucleotide strings, read from the 5' end, every base follows the letter of its sugar. An asterisk marks phosphorothioate; unmarked linkages are phosphodiester. Other units and linkages are bracketed, terminal groups are in braces. A string of capitals states the bases alone. e = 2'-O-(2-methoxyethyl) (MOE); [5mC] = 5-methylcytosine; d = 2'-deoxy (DNA)
OBSERVABLE: % Inhibition of human Factor 7 mRNA levels (%)
Return type: number; implicit unit %.

416449 (antisense eT*eA*eG*eG*eT*dA*dT*dT*dT*dT*dT*d[5mC]*d[5mC]*dA*d[5mC]*eA*eT*eG*eG*eA) [compound 416449] ... 68
416499 (antisense eG*eA*eG*eA*eG*d[5mC]*dT*dG*d[5mC]*dA*d[5mC]*d[5mC]*dT*dG*dG*e[5mC]*e[5mC]*eG*eG*e[5mC]) [compound 416499] ... 7
416489 (antisense eG*eT*eG*e[5mC]*eA*dG*d[5mC]*dT*dT*dG*d[5mC]*d[5mC]*dA*dG*dG*eT*e[5mC]*e[5mC]*eT*e[5mC]) [compound 416489] ... 38
416484 (antisense eT*eA*e[5mC]*eA*eG*d[5mC]*d[5mC]*dT*d[5mC]*dA*dA*dA*d[5mC]*dA*dT*e[5mC]*eT*eA*eT*e[5mC]) [compound 416484] ... 0

Which % Inhibition of human Factor 7 mRNA levels reading was recorded for the substance 416485 (antisense eG*eA*eG*e[5mC]*eT*dA*d[5mC]*dA*dG*d[5mC]*d[5mC]*dT*d[5mC]*dA*dA*eA*e[5mC]*eA*eT*e[5mC]) [compound 416485] ?
7

* * *

# Test system: human Factor 7 mRNA
# ASSAY_OVERVIEW: Inhibition of human Factor 7 mRNA by 2-10-2 MOE shortmers in HepB3 cells, electroporation, 1,000 nM
# Assay type: cell-based
# PARTICULARS: electroporation, 1,000 nM oligonucleotide, approximately 24 hours, relative to untreated control cells
In the oligonucleotide strings, read from the 5' end, every base follows the letter of its sugar. An asterisk marks phosphorothioate; unmarked linkages are phosphodiester. Other units and linkages are bracketed, terminal groups are in braces. A string of capitals states the bases alone. e = 2'-O-(2-methoxyethyl) (MOE); [5mC] = 5-methylcytosine; d = 2'-deoxy (DNA)
Could you label it satisfied if measured % inhibition of human Factor 7 mRNA is 40% or higher, and not satisfied otherwise?

The examples below pair each entry with its known result.
435686 (antisense e[5mC]*eA*dG*dT*dG*dA*dG*dG*dA*d[5mC]*d[5mC]*dA*e[5mC]*eG) [compound 435686] ... not satisfied
435489 (antisense e[5mC]*eT*dG*dG*dT*dG*dT*dA*d[5mC]*dA*d[5mC]*d[5mC]*e[5mC]*e[5mC]) [compound 435489] ... satisfied
435734 (antisense eA*eT*dG*d[5mC]*dT*dT*d[5mC]*dT*dG*dA*dA*dT*eT*eG) [compound 435734] ... not satisfied
435635 (antisense e[5mC]*eA*dT*dG*dA*dT*dG*dA*dA*dA*dT*d[5mC]*eT*e[5mC]) [compound 435635] ... not satisfied
435655 (antisense eA*e[5mC]*dA*dG*d[5mC]*d[5mC]*dG*d[5mC]*d[5mC]*dG*dT*dT*e[5mC]*eT) [compound 435655] ... satisfied
435801 (antisense e[5mC]*eG*dG*dT*dT*dG*dG*d[5mC]*d[5mC]*dA*dG*dG*e[5mC]*e[5mC]) [compound 435801] ... not satisfied
435789 (antisense e[5mC]*eA*dT*dG*dT*dT*dA*dG*d[5mC]*d[5mC]*dT*dT*eT*eG) [compound 435789] ... not satisfied
435838 (antisense eT*e[5mC]*d[5mC]*dA*dT*dG*dG*dA*d[5mC]*dA*d[5mC]*dT*eA*eA) [compound 435838] ... not satisfied
435762 (antisense e[5mC]*eA*dG*dG*dT*dG*dT*dT*dA*dA*dG*dG*eT*eG) [compound 435762] ... not satisfied
435833 (antisense eA*eG*dA*d[5mC]*dA*d[5mC]*dT*dT*dG*dA*dG*dA*eG*e[5mC]) [compound 435833] ... not satisfied

Please tell me: is the substance 435668 (antisense eT*eG*d[5mC]*d[5mC]*dA*dT*dG*dG*dA*d[5mC]*dA*d[5mC]*eT*e[5mC]) [compound 435668] at or over 40% in terms of % inhibition of human Factor 7 mRNA?
satisfied

Exam item: decide whether the reported % inhibition of human Factor 7 mRNA for 435696 (antisense e[5mC]*eA*dG*dA*dA*d[5mC]*dA*dT*dG*dT*dA*d[5mC]*eT*e[5mC]) [compound 435696] is at least 40%.
not satisfied

Hi team, for 435841 (antisense e[5mC]*eT*d[5mC]*dG*dG*dA*d[5mC]*dA*dA*dA*dA*dG*eA*eG) [compound 435841] , is the recorded % inhibition of human Factor 7 mRNA at or above 40%?
not satisfied

Determine whether this substance has % inhibition of human Factor 7 mRNA no lower than 40%: 435844 (antisense eT*eG*dG*d[5mC]*d[5mC]*dA*dG*dT*dG*dG*d[5mC]*d[5mC]*eT*e[5mC]) [compound 435844]
not satisfied

Entry 435764 (antisense eT*eG*dA*dG*dA*dG*d[5mC]*dT*dG*d[5mC]*dA*d[5mC]*e[5mC]*eT) [compound 435764] : is its % inhibition of human Factor 7 mRNA no less than 40%?
not satisfied

Tell me whether % inhibition of human Factor 7 mRNA is at least 40% here: 435491 (antisense e[5mC]*e[5mC]*d[5mC]*dT*dG*dG*dT*dG*dT*dA*d[5mC]*dA*e[5mC]*e[5mC]) [compound 435491]
satisfied

Textbook exercise: given the entry 435687 (antisense eA*eT*dG*dG*dT*d[5mC]*dA*dG*dT*dG*dA*dG*eG*eA) [compound 435687] , state whether its % inhibition of human Factor 7 mRNA is greater than or equal to 40%.
not satisfied

Is reported % inhibition of human Factor 7 mRNA greater than or equal to 40% here: 435759 (antisense eG*eA*dG*d[5mC]*d[5mC]*dA*d[5mC]*dA*dG*dA*dG*d[5mC]*e[5mC]*eT) [compound 435759]
not satisfied
